# Tested System: SERCA2a (Mus musculus, UniProt O55143)
# Construct: host or cells: HL-1 cardiac cells
# Assay Info: NADH-coupled ATPase assay on microsomal membrane vesicles from mouse heart ventricles (mouse SR)
# Assay type: biochemical
# Recorded Conditions: ATPase activity; range after the semicolon is not explained
Endpoint Name: EC50 (nM)
Numeric answer only, unit nM assumed.

Which measured EC50 value corresponds to COc1ccc2c(c1)CN(CCCCN(CCCCC1(O)CC1)CCCCC1(O)CC1)CCS2 [Compound 14a] ?
383

====

# Tested System: WT RyR2 (Mus musculus, UniProt E9Q401)
# Construct: expressed in transfected cells
# Sequence (E9Q401 whole entry): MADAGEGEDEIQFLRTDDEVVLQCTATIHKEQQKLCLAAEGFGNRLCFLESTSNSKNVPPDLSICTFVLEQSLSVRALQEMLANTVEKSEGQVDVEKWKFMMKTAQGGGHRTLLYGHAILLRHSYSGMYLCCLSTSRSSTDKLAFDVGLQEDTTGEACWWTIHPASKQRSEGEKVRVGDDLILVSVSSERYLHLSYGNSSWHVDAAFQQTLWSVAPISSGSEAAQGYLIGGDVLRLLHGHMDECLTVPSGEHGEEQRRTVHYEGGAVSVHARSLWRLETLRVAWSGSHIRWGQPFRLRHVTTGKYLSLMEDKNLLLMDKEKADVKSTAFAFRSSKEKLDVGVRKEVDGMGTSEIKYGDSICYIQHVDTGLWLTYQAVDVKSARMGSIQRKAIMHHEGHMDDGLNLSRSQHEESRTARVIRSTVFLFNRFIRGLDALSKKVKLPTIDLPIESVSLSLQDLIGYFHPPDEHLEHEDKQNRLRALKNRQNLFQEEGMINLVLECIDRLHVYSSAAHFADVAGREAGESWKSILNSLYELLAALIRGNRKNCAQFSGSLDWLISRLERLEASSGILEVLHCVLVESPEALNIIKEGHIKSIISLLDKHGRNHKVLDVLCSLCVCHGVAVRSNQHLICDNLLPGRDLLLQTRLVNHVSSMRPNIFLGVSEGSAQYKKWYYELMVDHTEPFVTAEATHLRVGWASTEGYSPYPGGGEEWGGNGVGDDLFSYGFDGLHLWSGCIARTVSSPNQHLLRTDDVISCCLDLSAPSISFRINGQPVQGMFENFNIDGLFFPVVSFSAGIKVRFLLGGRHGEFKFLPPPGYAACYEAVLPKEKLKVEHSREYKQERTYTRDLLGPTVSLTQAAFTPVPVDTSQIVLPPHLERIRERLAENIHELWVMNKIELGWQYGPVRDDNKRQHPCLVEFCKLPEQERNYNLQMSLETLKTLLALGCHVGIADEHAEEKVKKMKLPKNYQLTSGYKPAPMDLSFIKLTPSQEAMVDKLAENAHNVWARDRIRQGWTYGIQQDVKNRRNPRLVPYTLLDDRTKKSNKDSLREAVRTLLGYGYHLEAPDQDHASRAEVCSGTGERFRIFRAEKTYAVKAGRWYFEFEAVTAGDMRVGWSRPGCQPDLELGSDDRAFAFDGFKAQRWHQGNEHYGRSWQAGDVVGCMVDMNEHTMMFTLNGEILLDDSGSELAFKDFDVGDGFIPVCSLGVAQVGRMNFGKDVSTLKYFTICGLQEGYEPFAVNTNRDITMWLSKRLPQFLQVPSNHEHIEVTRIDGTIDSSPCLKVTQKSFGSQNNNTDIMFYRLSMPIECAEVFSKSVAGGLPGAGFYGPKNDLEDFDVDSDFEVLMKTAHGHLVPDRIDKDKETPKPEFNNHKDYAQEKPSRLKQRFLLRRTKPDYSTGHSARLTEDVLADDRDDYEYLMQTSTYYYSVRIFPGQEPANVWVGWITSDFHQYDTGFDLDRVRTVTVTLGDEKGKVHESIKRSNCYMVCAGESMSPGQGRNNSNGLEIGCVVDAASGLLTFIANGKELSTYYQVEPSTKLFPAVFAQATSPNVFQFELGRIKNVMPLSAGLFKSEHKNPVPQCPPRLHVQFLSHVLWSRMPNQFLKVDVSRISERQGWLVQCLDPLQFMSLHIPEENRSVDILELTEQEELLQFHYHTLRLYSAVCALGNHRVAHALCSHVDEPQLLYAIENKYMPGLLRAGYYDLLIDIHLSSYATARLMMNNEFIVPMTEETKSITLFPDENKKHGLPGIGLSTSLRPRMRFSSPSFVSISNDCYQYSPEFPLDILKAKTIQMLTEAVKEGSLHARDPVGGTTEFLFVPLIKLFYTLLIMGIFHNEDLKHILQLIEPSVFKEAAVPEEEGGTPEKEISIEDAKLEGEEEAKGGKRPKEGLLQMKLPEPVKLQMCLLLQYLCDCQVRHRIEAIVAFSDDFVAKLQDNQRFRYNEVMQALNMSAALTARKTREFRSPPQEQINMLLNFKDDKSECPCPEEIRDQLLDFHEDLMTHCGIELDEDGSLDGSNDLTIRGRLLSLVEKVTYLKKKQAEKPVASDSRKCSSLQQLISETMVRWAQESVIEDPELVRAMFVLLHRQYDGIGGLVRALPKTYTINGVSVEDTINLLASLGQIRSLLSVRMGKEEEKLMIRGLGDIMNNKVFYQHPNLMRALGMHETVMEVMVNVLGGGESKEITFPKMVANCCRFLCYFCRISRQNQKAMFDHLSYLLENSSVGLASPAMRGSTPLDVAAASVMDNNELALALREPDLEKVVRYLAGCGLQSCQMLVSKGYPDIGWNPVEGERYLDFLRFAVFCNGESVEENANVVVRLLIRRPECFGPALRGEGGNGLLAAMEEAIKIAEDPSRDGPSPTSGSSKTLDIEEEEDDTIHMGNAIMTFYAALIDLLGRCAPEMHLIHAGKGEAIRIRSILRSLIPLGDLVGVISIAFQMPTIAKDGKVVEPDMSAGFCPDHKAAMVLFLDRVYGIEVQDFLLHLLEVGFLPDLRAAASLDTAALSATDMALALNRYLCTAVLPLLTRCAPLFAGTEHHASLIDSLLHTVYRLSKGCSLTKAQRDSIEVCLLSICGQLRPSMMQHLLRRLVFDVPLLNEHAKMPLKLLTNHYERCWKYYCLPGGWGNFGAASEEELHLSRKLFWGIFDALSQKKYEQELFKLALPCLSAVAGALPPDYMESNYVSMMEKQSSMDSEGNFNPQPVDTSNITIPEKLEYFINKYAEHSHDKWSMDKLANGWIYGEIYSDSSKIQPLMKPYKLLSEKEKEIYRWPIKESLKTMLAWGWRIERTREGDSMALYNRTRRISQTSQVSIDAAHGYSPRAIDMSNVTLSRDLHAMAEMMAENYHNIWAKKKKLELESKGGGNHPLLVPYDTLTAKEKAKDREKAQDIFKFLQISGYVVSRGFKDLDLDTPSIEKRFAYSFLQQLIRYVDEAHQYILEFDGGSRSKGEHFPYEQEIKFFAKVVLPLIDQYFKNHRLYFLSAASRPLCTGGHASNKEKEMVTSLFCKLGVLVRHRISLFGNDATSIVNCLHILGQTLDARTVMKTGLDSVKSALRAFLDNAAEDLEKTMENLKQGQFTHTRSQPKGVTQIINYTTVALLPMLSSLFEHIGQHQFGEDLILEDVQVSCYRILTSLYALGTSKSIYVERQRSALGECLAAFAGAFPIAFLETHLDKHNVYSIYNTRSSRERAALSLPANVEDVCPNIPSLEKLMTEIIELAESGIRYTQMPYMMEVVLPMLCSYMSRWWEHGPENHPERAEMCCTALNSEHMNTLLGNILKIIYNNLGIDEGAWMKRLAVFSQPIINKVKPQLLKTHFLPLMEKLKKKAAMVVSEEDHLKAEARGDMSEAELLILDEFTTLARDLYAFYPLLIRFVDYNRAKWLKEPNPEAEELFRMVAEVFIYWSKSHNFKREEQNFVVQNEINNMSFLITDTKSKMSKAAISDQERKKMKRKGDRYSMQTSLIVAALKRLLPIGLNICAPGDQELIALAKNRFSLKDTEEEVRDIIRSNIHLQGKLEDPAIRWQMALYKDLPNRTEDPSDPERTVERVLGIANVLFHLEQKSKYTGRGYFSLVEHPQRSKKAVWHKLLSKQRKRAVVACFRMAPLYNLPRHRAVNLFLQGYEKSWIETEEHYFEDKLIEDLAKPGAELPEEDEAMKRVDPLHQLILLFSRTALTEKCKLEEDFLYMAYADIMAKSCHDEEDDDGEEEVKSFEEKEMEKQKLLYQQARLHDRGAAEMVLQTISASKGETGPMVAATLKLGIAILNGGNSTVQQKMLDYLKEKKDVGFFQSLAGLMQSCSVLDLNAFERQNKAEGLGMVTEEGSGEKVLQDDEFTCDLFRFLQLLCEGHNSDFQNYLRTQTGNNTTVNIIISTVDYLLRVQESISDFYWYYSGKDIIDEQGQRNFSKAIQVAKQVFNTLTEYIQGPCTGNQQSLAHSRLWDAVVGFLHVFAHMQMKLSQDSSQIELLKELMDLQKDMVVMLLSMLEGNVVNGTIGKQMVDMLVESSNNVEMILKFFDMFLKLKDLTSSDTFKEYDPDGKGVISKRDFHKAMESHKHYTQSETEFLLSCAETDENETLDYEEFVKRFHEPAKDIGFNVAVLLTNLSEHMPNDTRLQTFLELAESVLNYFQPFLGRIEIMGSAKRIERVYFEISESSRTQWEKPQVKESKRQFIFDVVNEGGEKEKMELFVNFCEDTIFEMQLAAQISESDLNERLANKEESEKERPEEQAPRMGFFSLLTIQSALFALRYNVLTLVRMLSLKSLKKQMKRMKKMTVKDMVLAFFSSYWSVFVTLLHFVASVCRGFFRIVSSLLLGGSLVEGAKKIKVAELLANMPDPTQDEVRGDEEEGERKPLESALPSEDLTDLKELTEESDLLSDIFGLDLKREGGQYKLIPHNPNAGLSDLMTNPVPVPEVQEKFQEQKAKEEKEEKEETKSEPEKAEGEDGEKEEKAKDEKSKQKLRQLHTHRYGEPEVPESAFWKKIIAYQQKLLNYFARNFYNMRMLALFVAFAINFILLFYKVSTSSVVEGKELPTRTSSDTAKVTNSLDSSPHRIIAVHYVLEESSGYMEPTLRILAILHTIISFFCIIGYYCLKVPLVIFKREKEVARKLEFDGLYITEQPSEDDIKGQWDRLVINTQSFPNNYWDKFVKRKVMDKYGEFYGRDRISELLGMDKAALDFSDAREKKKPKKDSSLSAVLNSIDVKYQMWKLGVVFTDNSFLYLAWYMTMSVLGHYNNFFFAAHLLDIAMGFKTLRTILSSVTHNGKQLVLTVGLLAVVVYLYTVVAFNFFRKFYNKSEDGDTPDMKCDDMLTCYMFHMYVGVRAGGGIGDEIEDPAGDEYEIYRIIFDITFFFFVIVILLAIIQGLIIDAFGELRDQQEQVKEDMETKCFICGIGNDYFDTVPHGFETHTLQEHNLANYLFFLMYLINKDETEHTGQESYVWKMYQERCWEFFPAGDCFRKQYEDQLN
# Assay Info: Time-lapse [Ca2+]ER assay (RyR2 R-CEPIA1er assay) in HEK-293 cells
# Assay type: cell-based
# Recorded Conditions: 25 µM in RyR2 R-CEPIA1er assay
Endpoint Name: RyR2 effect class

Here is how some compounds turned out for RyR2 effect class.
Compound	RyR2 effect class
COc1ccc2c(c1)CN(CCCCNCCCCC1(O)CC1)CCS2 [Compound 13a]	++
COc1ccc2c(c1)CN(CCCCC1(O)CC1)CCS2 [Compound 13d]	-
COc1ccc(OCCCNCCCCC2(O)CC2)cc1 [Compound 13b]	+++
COc1ccc2c(c1)CN(C(=O)C(=O)O)CCS2 [Compound S36, reference compound]	+++
COc1ccc2c(c1)CN(Cc1ccc(C(=O)O)cc1)CCS2 [ARM210, reference compound]	++
COc1ccc(SCCCN(CCCCC2(O)CC2)CCCCC2(O)CC2)cc1 [Compound 14c]	+
COc1ccc(SCCCNCCCCC2(O)CC2)cc1 [Compound 13c]	++

I have this compound here, COc1ccc2c(c1)CN(CCCCN(CCCCC1(O)CC1)CCCCC1(O)CC1)CCS2 [Compound 14a] , and I need its recorded RyR2 effect class.
+++

====

# Tested System: WT RyR2 (Mus musculus, UniProt E9Q401)
# Assay Info: Time-lapse [Ca2+]ER assay (RyR2 R-CEPIA1er assay) in HEK-293 cells
# Recorded Conditions: HEK-293 WT RyR2 R-CEPIA1er cells; range after the semicolon is not explained
Record form. Attribute: pEC50. Fill in for each entry.
Recall that pEC50 is obtained by taking minus log10 of the concentration measured in molar.

# get_value(readout='pEC50', item= COc1ccc(SCCCN(CCCCC2(O)CC2)CCCCC2(O)CC2)cc1 [Compound 14c] )
7.73

Entry under review: COc1ccc(OCCCNCCCCC2(O)CC2)cc1 [Compound 13b] . Reported pEC50?
7.09

I would be grateful if you could share the reported pEC50 for COc1ccc(SCCCNCCCCC2(O)CC2)cc1 [Compound 13c] .
7.99

====

# Tested System: SERCA2a (Mus musculus, UniProt O55143)
# Construct: host or cells: HL-1 cardiac cells
# Assay Info: Caffeine-induced Ca2+ release assay on HL-1 cells
# Format: cell-based
# Set-up: key: +++: a strong effect, comparable to or greater than that of a known compounds at a given concentration (25 µM in RyR2 R-CEPIA1er assay, 10 µM in caffeine assay and on microsomal membrane vesicles); ++: moderate effect; +: observable effect; -: no effect
# Recorded Conditions: 10 µM in caffeine assay
Endpoint Name: SERCA2a HL-1 effect class

A selection of reference data follows.
Molecule	SERCA2a HL-1 effect class
COc1ccc2c(c1)CN(C(=O)C(=O)O)CCS2 [Compound S36, reference compound]	-
COc1ccc(SCCCNCCCCC2(O)CC2)cc1 [Compound 13c]	++
COc1ccc2c(c1)CN(CCCCN(CCCCC1(O)CC1)CCCCC1(O)CC1)CCS2 [Compound 14a]	++
COc1ccc(OCCCNCCCCC2(O)CC2)cc1 [Compound 13b]	++

Return reported SERCA2a HL-1 effect class; argument: COc1ccc2c(c1)CN(CCCCNCCCCC1(O)CC1)CCS2 [Compound 13a]
+

Sample COc1ccc(SCCCN(CCCCC2(O)CC2)CCCCC2(O)CC2)cc1 [Compound 14c] — what was its SERCA2a HL-1 effect class?
+++

State the recorded SERCA2a HL-1 effect class for this entry: COc1ccc2c(c1)CN(CCCCC1(O)CC1)CCS2 [Compound 13d]
+

Any idea what its SERCA2a HL-1 effect class is? The molecule is COc1ccc2c(c1)CN(C)CCS2 [Compound S107, reference compound]
-

Entry COc1ccc2c(c1)CN(Cc1ccc(C(=O)O)cc1)CCS2 [ARM210, reference compound] has what SERCA2a HL-1 effect class?
+

Data provenance: patent EP4548971A1
